# Tested on: human bronchial epithelial cells, CFTR corrector, plate reader
# assay_comment: rescue of ΔF508 CFTR function, airway epithelium – human bronchial epithelial cells, plate reader, cherry-pick, two tests, dose response (AID 743267)
# condition_set: measured here: test 1 replicate run
reported_endpoint: AC50 (µM)
Write the value in µM as a bare number.

Before answering, review these 3 worked examples.
>  <compound_string>
COc1ccc(S(=O)(=O)Nc2ccc3c(c2)C(=O)N([C@H](C)CO)C[C@@H](C)[C@@H](CN(C)Cc2ccc(Cl)c(Cl)c2)O3)cc1

>  <display_unit>
µM

>  <AC50>
4.82

$$$$
>  <compound_string>
C[C@@H]1CN([C@@H](C)CO)C(=O)Cc2cc(N(C)C)ccc2O[C@@H]1CN(C)Cc1ccccc1

>  <display_unit>
µM

>  <AC50>
3.78

$$$$
>  <compound_string>
CN1c2ccc(-c3ccc(C#N)cc3)cc2[C@H]2[C@H](CCN2S(=O)(=O)c2cccc(F)c2)[C@@H]1CO

>  <display_unit>
µM

>  <AC50>
16

$$$$

Here's the next entry for you.
Prompt: What is its AC50 for human bronchial epithelial cells, CFTR corrector, plate reader? Entry: CN1c2ccc(-c3ccc(C#N)cc3)cc2[C@H]2[C@H](CCN2S(=O)(=O)c2cccc(F)c2)[C@H]1CO
Response: 0.128

====

# Tested on: human bronchial epithelial cells, CFTR corrector, plate reader
# assay_comment: rescue of ΔF508 CFTR function, airway epithelium – human bronchial epithelial cells, plate reader, cherry-pick, two tests, dose response (AID 743267)
# condition_set: measured here: test 1 replicate run
Param label: returns t when AC50 < 10 µM, returns f otherwise, including exact equality.

For orientation, consider the following solved cases.
>  <compound>
Cc1ccc(-c2ccc3c(c2)O[C@@H](CN(C)Cc2ccccn2)[C@H](C)CN([C@H](C)CO)S3(=O)=O)cc1

>  <label_value>
f

$$$$
>  <compound>
COc1ccc(S(=O)(=O)N2CC[C@@H]3[C@H](CO)N(C)c4ccc(-c5ccc(F)cc5)cc4[C@@H]32)cc1

>  <label_value>
f

$$$$
>  <compound>
COc1cccc(S(=O)(=O)N2C[C@@H]3N[C@H](C2)C3c2ccc(-c3cccc(C)c3)cc2)c1 (stereo partly drawn)

>  <label_value>
f

$$$$

Prompt: Consider the compound O=C(C1CC1)N1CC(=O)N2[C@H](CO)[C@@H](c3ccc(-c4ccccc4F)cc3)[C@@H]2C1 . Is its AC50 strictly less than 10 µM?
Response: t

Prompt: Consider the compound Cc1ccc(-c2ccc3c(c2)O[C@H](CN(C)Cc2ccccn2)[C@@H](C)CN([C@@H](C)CO)S3(=O)=O)cc1 . Is its AC50 strictly less than 10 µM?
Response: f

Prompt: Consider the compound N#Cc1ccc(-c2ccc3c(c2)[C@H]2[C@H](CCN2S(=O)(=O)c2ccccc2F)[C@@H](CO)N3)cc1 . Is its AC50 strictly less than 10 µM?
Response: t

Prompt: Consider the compound COc1ccc(-c2ccc3c(c2)[C@H]2[C@H](CCN2S(=O)(=O)c2ccc(OC)cc2)[C@H](CO)N3C)cc1 . Is its AC50 strictly less than 10 µM?
Response: t

Prompt: Consider the compound COc1ccccc1S(=O)(=O)N1CC[C@@H]2[C@@H](CO)N(C)c3ccc(-c4ccc(F)cc4)cc3[C@@H]21 . Is its AC50 strictly less than 10 µM?
Response: f

====

# Tested on: human bronchial epithelial cells, CFTR corrector, plate reader
# assay_comment: rescue of ΔF508 CFTR function, airway epithelium – human bronchial epithelial cells, plate reader, cherry-pick, two tests, dose response (AID 743267)
# condition_set: measured here: test 2 replicate run
reported_endpoint: AC50

Before answering, review these 8 worked examples.
>  <compound>
COc1ccccc1NS(=O)(=O)c1cc(-c2cnc(C3CC3)o2)ccc1C

>  <AC50>
9.51 µM

$$$$
>  <compound>
CCOc1ccc(Cl)cc1C1=CC(=O)C[C@H](c2ccc(OC)cc2)C1

>  <AC50>
1.92 µM

$$$$
>  <compound>
CC(C)CN(CCCNC(=O)CN1C(=O)CSc2ccc(S(=O)(=O)N3CCOCC3)cc21)CC(C)C

>  <AC50>
> 50 µM

$$$$
>  <compound>
Brc1ccc2c(c1)C(C1=NCCN1)c1ccccc1CS2 (stereo not given)

>  <AC50>
16 µM

$$$$
>  <compound>
Cc1ccc2cc(CN(CC3CCCO3)C(=S)Nc3ccccc3)c(=O)[nH]c2c1C (stereo not given)

>  <AC50>
3.16 µM

$$$$
>  <compound>
Cc1cc2c(cc1C)C(c1ccccc1OC(C)C)CC(=O)N2 (stereo not given)

>  <AC50>
1.85 µM

$$$$
>  <compound>
CCOc1ccc(C(=O)COC(=O)Cc2n[nH]c(=O)c3ccccc23)cc1

>  <AC50>
2.53 µM

$$$$
>  <compound>
O=C(Nc1ccccc1)c1nc[nH]c1C(=O)Nc1ccccc1F

>  <AC50>
28.3 µM

$$$$

Prompt: # lookup: AC50 of COc1ccc(/C=N/NC(=O)c2cccnc2)cc1CSc1ccccn1
Response: 28.2 µM

Prompt: # lookup: AC50 of COc1cc(C(=O)Nc2ccc3c(c2)CCN3C(C)=O)cc(OC)c1OC
Response: 3.56 µM

====

# Tested on: human bronchial epithelial cells, CFTR corrector, plate reader
# assay_comment: rescue of ΔF508 CFTR function, airway epithelium – human bronchial epithelial cells, plate reader, cherry-pick, two tests, dose response (AID 743267)
# condition_set: measured here: test 2 replicate run
Param label: returns Condition met when AC50 < 10 µM, returns Condition not met otherwise, including exact equality.

>  <compound>
CCOC(=O)N1CCN(S(=O)(=O)c2ccc3c(c2)C(C)C(=O)N3)CC1 (stereo unspecified)

>  <assayed_target>
human bronchial epithelial cells, CFTR corrector, plate reader

>  <label_value>
Condition not met

$$$$
>  <compound>
CC(=O)c1cccc(-c2ccnc3c2CC(C(=O)NCc2ccco2)O3)c1 (stereo unspecified)

>  <assayed_target>
human bronchial epithelial cells, CFTR corrector, plate reader

>  <label_value>
Condition met

$$$$
>  <compound>
COc1cc(Nc2c3c(nc4ccccc24)CCC3)cc(OC)c1OC

>  <assayed_target>
human bronchial epithelial cells, CFTR corrector, plate reader

>  <label_value>
Condition met

$$$$
>  <compound>
O=C(N/N=C/c1cccs1)c1cccc(NC(=O)c2ccccc2Cl)c1

>  <assayed_target>
human bronchial epithelial cells, CFTR corrector, plate reader

>  <label_value>
Condition met

$$$$
>  <compound>
CN(CC(=O)NCCc1ccc(S(N)(=O)=O)cc1)CC(=O)Nc1ccc(Cl)c(C(F)(F)F)c1

>  <assayed_target>
human bronchial epithelial cells, CFTR corrector, plate reader

>  <label_value>
Condition not met

$$$$
>  <compound>
COc1cc(C(=O)c2cocc2C(=O)c2ccc3c(c2)OCO3)cc(OC)c1OC

>  <assayed_target>
human bronchial epithelial cells, CFTR corrector, plate reader

>  <label_value>
Condition met

$$$$
>  <compound>
COc1ccc(C2c3ccc4ccccc4c3Oc3ncn(CCCO)c(=N)c32)cc1OC (stereo unspecified)

>  <assayed_target>
human bronchial epithelial cells, CFTR corrector, plate reader

>  <label_value>
Condition not met

$$$$
>  <compound>
CCOc1ccc(C(=O)N[C@H](C(=O)Nc2cccc(S(=O)(=O)N3CCCCC3)c2)C(C)C)cc1

>  <assayed_target>
human bronchial epithelial cells, CFTR corrector, plate reader

>  <label_value>
Condition not met

$$$$
>  <compound>
COc1cc(/C=C2\SC(=S)N(NC(=O)c3ccncc3)C2=O)ccc1O

>  <assayed_target>
human bronchial epithelial cells, CFTR corrector, plate reader

>  <label_value>
Condition not met

$$$$
>  <compound>
Cc1cc(C(=O)N/N=C/c2ccc([N+](=O)[O-])cc2)c2ccccc2n1

>  <assayed_target>
human bronchial epithelial cells, CFTR corrector, plate reader

>  <label_value>
Condition met

$$$$

Next, consider the following compound.
Prompt: Consider the compound COc1ccc(-c2ccc(OC)c(OC)c2OC)cc1 . Is its AC50 strictly less than 10 µM?
Response: Condition met

====

AC50 overview
# Tested on: human bronchial epithelial cells, CFTR corrector, plate reader
# assay_comment: rescue of ΔF508 CFTR function, airway epithelium – human bronchial epithelial cells, plate reader, cherry-pick, two tests, dose response (AID 743267)
# condition_set: measured here: test 2 replicate run
Write the value in µM as a bare number.

Before answering, review these 3 worked examples.
>  <compound>
COC(=O)c1ccc(S(=O)(=O)N2CCc3ccccc32)cc1

>  <AC50 / µM>
19.1

$$$$
>  <compound>
COc1ccc([N+](=O)[O-])cc1Nc1c2ccccc2nc2ccccc12

>  <AC50 / µM>
2.62

$$$$
>  <compound>
O=C1c2cccc3c(O)ccc(c23)C(=O)N1Cc1ccco1

>  <AC50 / µM>
13.3

$$$$

Prompt: # lookup: AC50 of O=[N+]([O-])c1ccc(Sc2cccc[n+]2[O-])c2nonc12
Response: 12.7

Prompt: # lookup: AC50 of C=C1C(=O)O[C@@H]2C[C@@H](C)[C@@H]3C=CC(=O)[C@@]3(C)[C@@H](O)[C@H]12
Response: 0.989

Prompt: # lookup: AC50 of Cc1ccnc(N2C(=O)c3cccc4c([N+](=O)[O-])ccc(c34)C2=O)c1
Response: 6.5

Prompt: # lookup: AC50 of COc1ccccc1Nc1nc(-c2sc(NC(=O)C(C)(C)C)nc2C)cs1
Response: 3.84

Prompt: # lookup: AC50 of COc1cccc(-c2cnc3c(NC(C)=O)cc(-c4cc(F)ccc4OC)cn23)c1
Response: 11.9

Prompt: # lookup: AC50 of COc1cc(/C=C2\SC(=Nc3ccc(Cl)c(C(=O)O)c3)NC2=O)c(Br)c(Br)c1O
Response: 6.66

Prompt: # lookup: AC50 of O=C1OCC2=C1C(c1ccc3c(c1)OCO3)c1cc3c(cc1O2)OCO3 (stereo unspecified)
Response: 2.12

Prompt: # lookup: AC50 of COc1ccccc1NS(=O)(=O)c1cc(N=N/C(C(=O)Nc2ccc(Cl)cc2)=C(/C)O)ccc1C
Response: 36.6

Prompt: # lookup: AC50 of COC(=O)c1ccc(/C=C/c2c(-c3ccc(OC)cc3)oc3ccc(N4CCOCC4)cc23)cc1
Response: 16

Prompt: # lookup: AC50 of O=c1[nH]c(/C=C/c2ccccc2F)nc2ccccc12
Response: 2.69

Prompt: # lookup: AC50 of COc1cc([C@@H]2c3cc4c(cc3[C@@H](OC)[C@H]3COC(=O)[C@H]23)OCO4)cc(OC)c1O
Response: 2.52

All figures here come from PubChem BioAssay AID743267.
